Tested on: PC3-PIP tumor model
Parameters: species or system mice
Stated conditions: mouse, in vivo
Excerpt: Radioactively labeled compounds can be detected by imaging methods such as SPECT and PET. Furthermore, the data acquired by such techniques can be confirmed by direct measurement of radioactivity contained in the individual organs prepared from an animal injected with a radioactively labeled compound of the disclosure. Thus, the biodistribution (the measurement of radioactivity in individual organs) of a radioactively labeled compound can be determined and analyzed. […]
Bridge positions count the residues as written; N and C are the ends. Square brackets hold non-standard residues; d marks the D form. Side chains are listed from the residue outwards. Peptide text beside a SMILES is read from it. * marks the point of attachment. X2 = O=C(O)CN1CCN(CC(=O)O)CCN([C@H](CCC(=O)*)C(=O)O)CCN(CC(=O)O)CC1; Phe(3-Cl) = N[C@@H](Cc1cccc(Cl)c1)C(=O)O; Tle = CC(C)(C)[C@H](N)C(=O)O; AEEA = NCCOCCOCC(=O)O; Aib = CC(C)(N)C(=O)O
Measurement name: Tumor AUC (% ID/g*h)
Give just the numeric value; % ID/g*h need not be written.

Let me check: CC(=O)N[C@H](C(=O)NC(C)(C)C(=O)N[C@@H](Cc1cccc(Cl)c1)C(=O)N[C@H]1CSSC[C@@H](C(=O)N[C@H](C(=O)N[C@H](C(N)=O)[C@@H](C)O)C(C)(C)C)NC(=O)[C@H](CC(N)=O)NC(=O)[C@H](CCCCNC(=O)COCCOCCNC(=O)CC[C@H](C(=O)O)N2CCN(CC(=O)O)CCN(CC(=O)O)CCN(CC(=O)O)CC2)NC(=O)[C@H](CCCNC(=N)N)NC(=O)[C@H](CCCCN)NC1=O)[C@@H](C)O [PSM-0301] (Ac-T[Aib][Phe(3-Cl)]CKRK([AEEA-X2])NC[Tle]T-NH2; disulfide 4-9) , system PC3-PIP tumor model, measured Tumor AUC is 83

----------
Exercise: state measured Kd for each of the molecules provided.
System: Fc-fusion protein of human PSMA (hPSMA-Fc) (Homo sapiens)
Construct: purchased Acro Biosystems PSA-H5264
Sequence (Q04609 44-750 limits assumed): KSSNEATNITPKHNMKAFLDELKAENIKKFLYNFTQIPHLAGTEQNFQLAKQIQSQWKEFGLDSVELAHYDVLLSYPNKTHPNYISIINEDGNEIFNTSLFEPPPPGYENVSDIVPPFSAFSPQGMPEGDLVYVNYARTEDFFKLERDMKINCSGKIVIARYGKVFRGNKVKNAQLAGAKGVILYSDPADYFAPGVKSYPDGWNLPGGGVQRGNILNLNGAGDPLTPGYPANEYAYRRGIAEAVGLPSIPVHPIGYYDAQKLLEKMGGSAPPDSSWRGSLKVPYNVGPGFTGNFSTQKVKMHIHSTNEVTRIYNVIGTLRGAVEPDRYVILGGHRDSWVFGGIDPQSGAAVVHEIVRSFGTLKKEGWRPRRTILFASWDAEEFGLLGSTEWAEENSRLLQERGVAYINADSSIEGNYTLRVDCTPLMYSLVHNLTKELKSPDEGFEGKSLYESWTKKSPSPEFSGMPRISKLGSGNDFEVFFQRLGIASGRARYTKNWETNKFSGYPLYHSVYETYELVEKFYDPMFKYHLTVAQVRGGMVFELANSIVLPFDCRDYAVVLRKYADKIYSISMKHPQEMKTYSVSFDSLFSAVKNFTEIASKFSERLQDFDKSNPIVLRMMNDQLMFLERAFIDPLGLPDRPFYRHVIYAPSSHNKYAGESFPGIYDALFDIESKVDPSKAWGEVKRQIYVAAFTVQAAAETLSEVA
Protocol notes: Surface plasmon resonance assay (Biacore T200, single cycle kinetic)
Type: binding
Stated conditions: SPR, hPSMA-Fc, single cycle kinetic, 25° C.; category; read-out: pKD CAT (converted)
Numbered stars: 1 amine (or outer) side, 2 acyl side, 3 side chain; on linkers, the order of the positions; unused ones are H or OH. Bridge positions count the residues as written; N and C are the ends. Square brackets hold non-standard residues; d marks the D form. Side chains are listed from the residue outwards. Peptide text beside a SMILES is read from it. * marks the point of attachment. Acetyl(1-DOTA-4-piperidyl) = O=C(O)CN1CCN(CC(=O)O)CCN(CC(=O)N2CCC(CC(=O)*)CC2)CCN(CC(=O)O)CC1; X3 = O=C(O)CN1CCN(CC(=O)O)CCN(CC(=O)NCCCOCCOCCOCCCN*)CCN(CC(=O)O)CC1; DOTA = O=C(O)CN1CCN(CC(=O)O)CCN(CC(=O)*)CCN(CC(=O)O)CC1; Phe(3-Cl) = N[C@@H](Cc1cccc(Cl)c1)C(=O)O; Phe(4-Cl) = N[C@@H](Cc1ccc(Cl)cc1)C(=O)O; Propanoyl(3-SO2NH2) = NS(=O)(=O)CCC(=O)*; Suc = O=C(CCC(=O)[*:2])[*:1]; Tle = CC(C)(C)[C@H](N)C(=O)O; AEEA = NCCOCCOCC(=O)O; Aib = CC(C)(N)C(=O)O

Sample CC(=O)NC(C)(C)C(=O)N[C@@H](Cc1ccccc1)C(=O)N[C@H]1CSSC[C@@H](C(=O)N[C@H](C(=O)N[C@H](C(N)=O)[C@@H](C)O)C(C)(C)C)NC(=O)[C@H](CC(N)=O)NC(=O)C(C)(C)NC(=O)[C@H](CCCNC(=N)N)NC(=O)[C@H](CCCCN)NC1=O [PSM-0228] (Ac-[Aib]FCKR[Aib]NC[Tle]T-NH2; disulfide 3-8) ; Kd observed: < 12.6 nM

Sample CC(=O)N[C@H](C(=O)NC(C)(C)C(=O)N[C@@H](Cc1ccc(Cl)cc1)C(=O)N[C@H]1CSSC[C@@H](C(=O)N[C@H](C(=O)N[C@H](C(=O)N[C@H](CCCCNC(=O)CC2CCN(C(=O)CN3CCN(CC(=O)O)CCN(CC(=O)O)CCN(CC(=O)O)CC3)CC2)C(N)=O)[C@@H](C)O)C(C)(C)C)NC(=O)[C@H](CC(N)=O)NC(=O)C(C)(C)NC(=O)[C@H](CCCNC(=N)N)NC(=O)[C@H](CCCCN)NC1=O)[C@@H](C)O [PSM-0190] (Ac-T[Aib][Phe(4-Cl)]CKR[Aib]NC[Tle]T[dK](Acetyl(1-DOTA-4-piperidyl))-NH2; disulfide 4-9) ; Kd observed: < 12.6 nM

Sample C[C@@H](O)[C@H](NC(=O)[C@@H](NC(=O)[C@@H]1CSSC[C@H](NC(=O)[C@H](Cc2ccccc2)NC(=O)C(C)(C)NC(=O)CCS(N)(=O)=O)C(=O)N[C@@H](CCCCN)C(=O)N[C@@H](CCCNC(=N)N)C(=O)NC(C)(C)C(=O)N[C@@H](CC(N)=O)C(=O)N1)C(C)(C)C)C(N)=O [PSM-0224] ({Propanoyl(3-SO2NH2)}-[Aib]FCKR[Aib]NC[Tle]T-NH2; disulfide 3-8) ; Kd observed: < 12.6 nM

Sample CC(=O)N[C@H](C(=O)NC(C)(C)C(=O)N[C@@H](Cc1cccc(Cl)c1)C(=O)N[C@H]1CSSC[C@@H](C(=O)N[C@H](C(=O)N[C@H](C(N)=O)[C@@H](C)O)C(C)(C)C)NC(=O)[C@H](CC(N)=O)NC(=O)[C@H](CCCCNC(=O)COCCOCCNC(=O)CN2CCN(CC(=O)O)CCN(CC(=O)O)CCN(CC(=O)O)CC2)NC(=O)[C@H](CCCNC(=N)N)NC(=O)[C@H](CCCCN)NC1=O)[C@@H](C)O [PSM-0243] (Ac-T[Aib][Phe(3-Cl)]CKRK([AEEA-DOTA])NC[Tle]T-NH2; disulfide 4-9) ; Kd observed: < 12.6 nM

Sample C[C@@H]1NC(=O)[C@H](CCCNC(=N)N)NC(=O)[C@H](CCCCN)NC(=O)[C@@H](NC(=O)[C@H](Cc2ccccc2)NC(=O)[C@H](C)NC(=O)[C@@H](NC(=O)CCC(=O)NCCCOCCOCCOCCCNC(=O)CN2CCN(CC(=O)O)CCN(CC(=O)O)CCN(CC(=O)O)CC2)[C@@H](C)O)CSSC[C@@H](C(N)=O)NC(=O)[C@H](CC(N)=O)NC1=O [PSM-0201] ({X3-Suc}-TAFCKRANC-NH2; disulfide 4-9) ; Kd observed: > 501 nM

----------
System: Fc-fusion protein of human PSMA (hPSMA-Fc) (Homo sapiens)
Construct: purchased Acro Biosystems PSA-H5264
Protocol notes: Surface plasmon resonance assay (Biacore T200, single cycle kinetic)
Type: binding
Stated conditions: PSMA SPR assay, hPSMA-Fc, 25° C.; pKD category; read-out: pKD CAT (converted)
Numbered stars: 1 amine (or outer) side, 2 acyl side, 3 side chain; on linkers, the order of the positions; unused ones are H or OH. Bridge positions count the residues as written; N and C are the ends. Square brackets hold non-standard residues; d marks the D form. Peptide text beside a SMILES is read from it. * marks the point of attachment. DOTA = O=C(O)CN1CCN(CC(=O)O)CCN(CC(=O)*)CCN(CC(=O)O)CC1; Phe(4-Cl) = N[C@@H](Cc1ccc(Cl)cc1)C(=O)O; X1 = O=C(CC1CCN([*:1])CC1)[*:2]; Cit = NC(=O)NCCC[C@H](N)C(=O)O; dTle = CC(C)(C)[C@@H](N)C(=O)O; Tle = CC(C)(C)[C@H](N)C(=O)O; Aib = CC(C)(N)C(=O)O
Measurement name: Kd

Sample CC(=O)N[C@H](C(=O)NC(C)(C)C(=O)N[C@@H](Cc1ccc(Cl)cc1)C(=O)N[C@H]1CSSC[C@@H](C(=O)N[C@H](C(=O)N[C@H](C(=O)N2CCC(CC(=O)N[C@H](CCCCNC(=O)CN3CCN(CC(=O)O)CCN(CC(=O)O)CCN(CC(=O)O)CC3)C(N)=O)CC2)[C@@H](C)O)C(C)(C)C)NC(=O)[C@H](CC(N)=O)NC(=O)C(C)(C)NC(=O)[C@H](CCCNC(N)=O)NC(=O)[C@H](CCCCN)NC1=O)[C@@H](C)O [PSM-0329] (Ac-T[Aib][Phe(4-Cl)]CK[Cit][Aib]NC[Tle]T[X1][dK](DOTA)-NH2; disulfide 4-9) ; Kd observed: 12.6 to 126 nM

Sample CC(=O)N[C@H](C(=O)NC(C)(C)C(=O)N[C@@H](Cc1ccccc1)C(=O)N[C@H]1CSSC[C@@H](C(=O)N[C@@H](C(=O)N[C@H](C(N)=O)[C@@H](C)O)C(C)(C)C)NC(=O)[C@H](CC(N)=O)NC(=O)C(C)(C)NC(=O)[C@H](CCCNC(=N)N)NC(=O)[C@H](CCCCN)NC1=O)[C@@H](C)O [PSM-0350] (Ac-T[Aib]FCKR[Aib]NC[dTle]T-NH2; disulfide 4-9) ; Kd observed: 126 to 501 nM
